- System: TGFβ signal
- assayInfo: TGFβ signal inhibitory activity, (SBE)4-Luc reporter in A549 cells (Test Examples 1A and 1B)
- Type: cell-based, human
- conditionsUsed: Homo sapiens, A549; test compound 3 µM; TGFβ-1 2 ng/ml, 4 hr; Table 1A; read-out: TGFβ inhibition rate, %
- Experimental: Test Example 1A: TGFβ signal inhibitory activity (in vitro test) The compounds according to the present invention was evaluated for TGFβ signal inhibitory activity according to the method described in J. Boil .Chem., 273, 21145-21152 (1998). […] After the culture, the luciferase activity of the cells were measured by chemiluminescence (Steady Glo (trademark) luciferase assay system, available from Promega). […]
readout: inhibition at 3 µM (%)
Answers are plain numbers, in %.

CCN(C)CCOc1ccc2nccc(Oc3ccc(C)nc3-c3ncccn3)c2c1 | 52
Cc1cc(Oc2ccnc3ccc(-c4cccn4C(=O)OC(C)(C)C)cc23)c(-c2ccccn2)nc1C | 35

Asked: Which measured inhibition at 3 µM value corresponds to `c1ccc(-c2nc3ncccc3cc2Oc2ncnc3ccsc23)cc1` ?
Given back: 84

###

- Tested on: TGFβ signal
- assayInfo: TGFβ signal inhibitory activity, (SBE)4-Luc reporter in A549 cells (Test Examples 1A and 1B)
- Assay type: cell-based, human
- conditionsUsed: Homo sapiens, A549; test compound 3 µM; Reference Examples, Table 1B; read-out: TGFβ inhibition rate, %
Give measured inhibition at 3 µM for each item. Keep answers brief.
Numbers only, in %.

The cases that follow already have their inhibition at 3 µM on record.
CCN(CC)CCCCOc1cc2nccc(Oc3ccc(C)cc3C(=O)c3ccccc3)c2cc1OC | 97
CCOC(=O)c1cc(C)ccc1Oc1ccnc2cc(OC)c(OC)cc12 | 84
COc1cc2nccc(Oc3ccc4c(c3)C(=O)c3ccccc3-4)c2cc1OC | 73
CCOC(=O)c1cc(OC)ccc1Oc1ccnc2cc(OC)c(OC)cc12 | 96

Asked: Can you look up inhibition at 3 µM on TGFβ signal for `COc1cc2nccc(Oc3ccc(C)cc3CN3CCCCC3)c2cc1OC` ?
Given back: 30

###

- Test system: TGFβ signal
- assayInfo: TGFβ signal inhibitory activity, (SBE)4-Luc reporter in A549 cells (Test Examples 1A and 1B)
- Type: cell-based, human
- conditionsUsed: Homo sapiens, A549; test compound 3 µM; Reference Examples, Table 1B; read-out: TGFβ inhibition rate, %
If the reported inhibition at 3 µM equals or exceeds 70%, assign 1. If not, assign 0.

Please review the entries below; each comes with its answer.
CCCOC(=O)c1ccccc1Oc1ccnc2cc(OC)c(OC)cc12 | 0
COc1cc(Oc2ccnc3cc(OC)c(OC)cc23)c(C(C)=O)cc1OC | 0
COc1cc2nccc(Oc3ccc4c(ccn4C(C)=O)c3)c2cc1OC | 0
COc1cc2nccc(Oc3ccccc3C(=O)/C=C/c3ccccc3)c2cc1OC | 0
COc1cc2nccc(Oc3cc4ccccc4cc3C(=O)Nc3cccc4ccccc34)c2cc1OC | 0
COc1cc2nccc(Oc3ccc(Cl)cc3C(N)=O)c2cc1OC | 0
CCOC(=O)c1ccccc1Oc1ccnc2cc(OC)c(OC)cc12 | 0
COc1cc2c(Oc3ccc(C)cc3C(=O)c3ccccc3)ccnc2cc1OCCN1CCOCC1 | 1
CCC(=O)c1cc(C)ccc1Oc1ccnc2cc(OC)c(OC)cc12 | 1
COc1cc2nccc(Oc3ccc(C)cc3-c3ccno3)c2cc1OC | 0

Attention now turns to another entry.
Asked: Textbook exercise: given the entry `COc1cc2nccc(Oc3ccc(C)cc3C(=O)C3CCCCC3)c2cc1OC` , state whether its inhibition at 3 µM is greater than or equal to 70%.
Given back: 0

Reference for the values: patent EP1724268A1
